- ASSAY SYSTEM: Kappa-type opioid receptor (Cavia porcellus, UniProt P41144)
- Sequence (P41144 whole entry): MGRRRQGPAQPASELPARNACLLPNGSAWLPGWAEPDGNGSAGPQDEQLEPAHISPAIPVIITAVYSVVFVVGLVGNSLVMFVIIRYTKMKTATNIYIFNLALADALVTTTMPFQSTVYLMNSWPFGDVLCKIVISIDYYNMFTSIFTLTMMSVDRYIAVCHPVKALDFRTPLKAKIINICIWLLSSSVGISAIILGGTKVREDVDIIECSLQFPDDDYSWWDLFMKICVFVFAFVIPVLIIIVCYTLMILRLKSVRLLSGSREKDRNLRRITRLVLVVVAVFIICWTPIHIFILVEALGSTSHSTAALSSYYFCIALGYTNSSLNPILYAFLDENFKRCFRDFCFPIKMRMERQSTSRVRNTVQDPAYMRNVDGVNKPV
Cut-off 400 nM on Ki: below means Satisfied, at or above means Not satisfied.

CN(C(=O)/C=C/c1ccoc1)[C@@H]1CC[C@@]2(O)[C@H]3Cc4cccc5c4[C@@]2(CCN3CC2CC2)[C@H]1O5    Satisfied
CN(C(=O)/C=C/c1ccoc1)[C@@H]1CC[C@@]2(O)[C@H]3Cc4ccc(O)cc4[C@@]2(CCN3CC2CC2)C1    Satisfied
O=C1CC[C@@]2(O)[C@H]3CC4=C(CCCC4)[C@@]2(CCN3CC2CC2)C1    Not satisfied
CN(C(=O)/C=C/c1ccoc1)[C@@H]1CC[C@@]2(O)[C@H]3CC4=C(CCCC4)[C@@]2(CCN3CC2CC2)C1    Satisfied
CN(C(=O)/C=C/c1ccoc1)[C@@H]1CC[C@H]2[C@H]3CC4=C(CCCC4)[C@@]2(CCN3CC2CC2)C1    Satisfied
CN[C@@H]1CC[C@@]2(O)[C@H]3CC4=C(CCCC4)[C@@]2(CCN3CC2CC2)C1    Satisfied
CN(C(=O)/C=C/c1ccoc1)[C@@H]1CC[C@H]2[C@H]3Cc4ccc(O)c5c4[C@@]2(CCN3CC2CC2)[C@H]1O5    Satisfied

# evaluate next
IN: Field: below-cutoff. Rule: recorded Ki strictly less than 400 nM. Subject: CN(C(=O)/C=C/c1ccoc1)[C@@H]1CC[C@H]2CN(CC3CC3)CC[C@@H]2C1
OUT: Not satisfied

====

- ASSAY NOTES: Selectivity ratio of Ki for mu opioid receptor in mouse cerebellum to Ki for kappa opioid receptor in guinea pig cerebellum
- Assay type: tissue-based
PROPERTY LABEL: Ratio Ki
Answer with the value's number alone.

Below are worked cases with known answers.
CN(C(=O)/C=C/c1ccoc1)[C@@H]1CC[C@@]2(O)[C@H]3CC4=C(CCCC4)[C@@]2(CCN3CC2CC2)C1    14.7
CN(C(=O)/C=C/c1ccoc1)[C@@H]1CC[C@H]2[C@H]3CC4=C(CCCC4)[C@@]2(CCN3CC2CC2)C1    1.94
CN(C(=O)/C=C/c1ccoc1)[C@@H]1CC[C@H]2[C@H]3Cc4ccc(O)c5c4[C@@]2(CCN3CC2CC2)[C@H]1O5    1.47
O=C1CC[C@@]2(O)[C@H]3CC4=C(CCCC4)[C@@]2(CCN3CC2CC2)C1    0.5
CN(C(=O)/C=C/c1ccoc1)[C@@H]1CC[C@@]2(O)[C@H]3Cc4ccc(O)cc4[C@@]2(CCN3CC2CC2)C1    2.42

Now consider a different compound.
IN: // returns reported Ratio Ki for input CN(C(=O)/C=C/c1ccoc1)[C@@H]1CC[C@@]2(O)[C@H]3Cc4cccc5c4[C@@]2(CCN3CC2CC2)[C@H]1O5
OUT: 59.8

====

// pKi lookup, one value per entry
- ASSAY SYSTEM: Delta-type opioid receptor (Mus musculus)
- Sequence (P32300 whole entry): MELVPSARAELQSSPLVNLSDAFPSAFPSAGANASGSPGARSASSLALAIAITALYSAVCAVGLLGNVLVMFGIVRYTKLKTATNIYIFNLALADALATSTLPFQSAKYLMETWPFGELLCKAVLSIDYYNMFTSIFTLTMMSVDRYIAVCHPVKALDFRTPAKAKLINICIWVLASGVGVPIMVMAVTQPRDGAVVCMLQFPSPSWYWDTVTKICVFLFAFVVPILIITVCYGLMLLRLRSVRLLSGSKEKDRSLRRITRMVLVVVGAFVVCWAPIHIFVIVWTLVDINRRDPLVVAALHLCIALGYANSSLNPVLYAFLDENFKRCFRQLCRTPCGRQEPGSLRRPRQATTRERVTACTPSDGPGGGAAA
- ASSAY NOTES: Displacement of [3H]DPDPE from delta opioid receptor in mouse cerebellum
Quick note: pKi values are minus log10 of concentrations in mol/L.

Example entries and their recorded answers appear below.
CN(C(=O)/C=C/c1ccoc1)[C@@H]1CC[C@H]2[C@H]3CC4=C(CCCC4)[C@@]2(CCN3CC2CC2)C1    6.69
CN(C(=O)/C=C/c1ccoc1)[C@@H]1CC[C@H]2[C@H]3Cc4ccc(O)c5c4[C@@]2(CCN3CC2CC2)[C@H]1O5    8.05

IN: // query pKi value for entry CN(C(=O)/C=C/c1ccoc1)[C@@H]1CC[C@@]2(O)[C@H]3CC4=C(CCCC4)[C@@]2(CCN3CC2CC2)C1
OUT: 6.51
